These data points were gathered from PubChem BioAssay (NCATS).

# protocolDetails: qHTS Screen of the MIPE 4.0 Collection Against Ewings Sarcoma (RDES) (AID 1259252); note: nearly all actives have a fitted effect of over 35% in size
# conditionInfo: RD-ES Ewing sarcoma viability, CellTiter-Glo, 48 h; series mostly up to 45.8 µM
Inconclusive results are not listed. Calls of active or inactive are those of the source. Calls come from the whole dose curve; as a rule, active = well fitted inhibition curve with a large enough effect; inconclusive = small, poorly fitted or top-dose-only effect; inactive = no such curve, though single readings can be large or run the other way.
Just give me one of these, please: Y for active, N for inactive

Sample answers from the record:
compound: Cn1cc(-c2[nH]c3cc(NC(=O)[C@H](N)C4CCCCC4)cc4c3c2C=NNC4=O)cn1
labelClass: Y
//
compound: Cn1c2cc(S(C)=O)sc2c2cnn(Cc3cccc(N)c3)c(=O)c21 (stereo not given)
labelClass: N
//
compound: Cc1c(NC(=O)OC[C@@H]2COCCN2)cn2ncnc(Nc3ccc4c(cnn4Cc4cccc(F)c4)c3)c12
labelClass: Y
//
compound: COc1cc(-c2nn(C3CCC(N4CCN(C(C)=O)CC4)CC3)c3ncnc(N)c23)ccc1NC(=O)c1cc2ccccc2n1C (stereo not given)
labelClass: Y

Ask: Recorded call for `COCCOc1ccc2c(c1)ncn2-c1ccc2cccc(N3CCC(N)CC3)c2n1` ?
Reply: Y

Ask: Recorded call for `CC(C)(C)c1cc(C(C)(C)C)c(NC(=O)c2c[nH]c3ccccc3c2=O)cc1O` ?
Reply: N

Ask: Recorded call for `Cc1cnc(Nc2ccc(F)cc2Cl)nc1-c1c[nH]c(C(=O)N[C@H](CO)c2cccc(Cl)c2)c1` ?
Reply: Y

Ask: Recorded call for `CC(C)(C)c1cc(NC(=O)Nc2ccc(-c3cn4c(n3)sc3cc(OCCN5CCOCC5)ccc34)cc2)no1` ?
Reply: N

Ask: Recorded call for `C[C@@H](Oc1cc(-c2cnn(C3CCNCC3)c2)cnc1N)c1c(Cl)ccc(F)c1Cl` ?
Reply: Y

Ask: Recorded call for `Cc1nc2cnc3ccc(C#Cc4cccnc4)cc3c2n1-c1ccc(C(C)(C)C#N)cc1` ?
Reply: Y

Ask: Recorded call for `CNC(=O)CN1CCC(Oc2cc3c(Nc4cccc(Cl)c4F)ncnc3cc2OC)CC1` ?
Reply: Y

###

Give activity change, negative = inhibition for every item shown.
# measuredOn: Guanidinoacetate N-methyltransferase (Homo sapiens) (UniProt Q14353)
# protocolDetails: Confirmatory Screen for Target Class Profiling of Small Molecule Inhibitors of Methyltransferases (AID 1745852); note: % is set by controls: 0 for no effect and ±100 for the full control effect
# conditionInfo: MTase-Glo luminescence, SAH detection, recombinant enzyme; at 57.3 µM (top of the series) unless noted
Give bare numbers, in %.

testSmiles: Nc1ccccc1NC(=O)c1ccc(CNc2nccc(-c3cccnc3)n2)cc1
activity change, negative = inhibition, %: -1.06

testSmiles: O=C(c1ccc(Nc2nccc(-c3cc4ccccc4s3)n2)cc1)N1CCC(N2CCCC2)CC1
activity change, negative = inhibition, %: -6.01

// next item, activity change, negative = inhibition requested
Ask: // query activity change, negative = inhibition value for entry `Cc1c(CN2CCN(S(C)(=O)=O)CC2)sc2c(N3CCOCC3)nc(-c3cnc(N)nc3)nc12`
Reply: -5.48

###

# protocolDetails: Quantitative High-Throughput drug screen in 47 multiple myeloma cell lines against the NCATS MIPE library collection: VP6_DJ cell viability assay (AID 1919867); note: nearly all actives have a fitted effect of over 40% in size
# conditionInfo: ATP luminescence, 48 h; series mostly up to 45.8 µM
Inconclusive results are not listed. Activity calls are given as the source filed them. Calls follow the shape of the dose curve; as a rule, active = well fitted cell-killing curve with a large enough effect; inconclusive = small, poorly fitted or top-dose-only effect, or effect the other way; inactive = no such curve, though single readings can be large or run the other way.
Just give me one of these, please: active, inactive

Sample answers from the record:
compound: Cc1cn(-c2cc(NC(=O)c3ccc(C)c(Nc4nccc(-c5cccnc5)n4)c3)cc(C(F)(F)F)c2)cn1
labelClass: inactive
//
compound: COCCn1c2c([n+](Cc3cnccn3)c1C)C(=O)c1ccccc1C2=O
labelClass: active

Ask: Recorded call for `NC1(Cc2ccc(Cl)cc2)CCN(c2ncnc3[nH]ccc23)CC1` ?
Reply: active

Ask: Recorded call for `COc1cc(C(=O)N2CCC(N3CCN(C)CC3)CC2)ccc1Nc1ncc2c(n1)N(C)c1ccccc1C(=O)N2C` ?
Reply: active

Ask: Recorded call for `CN(C)CC=CC(=O)Nc1cc2c(Nc3ccc(F)c(Cl)c3)ncnc2cc1O[C@H]1CCOC1` ?
Reply: active
